- assay_overview: yeast display, Sf9 membrane polyspecificity reagent, FACS + sequencing; frameworks hold sequencing errors

# chain, polyreactivity (PSR sort gate)
rows = [
    ("QVQLVESGGGLVQAGGSLRLSCAASGITVKLYPMGWYRQAPGKETELVATINRGSSTYYADSVKGRFTISRDNAKNTVYLLMNSLKPEDTAVYYCAARLIGAGLLIYDYWGQGTQVTVSS", "high polyreactivity"),
    ("QVQLVESGGGLVQAGGSLRLSCAASGLTVGGNVMGWYRQAPGKERELVAAISRSGDRTYYADSVKGRFTISRDNAKNTVYLQMNSLKPEDTAVYYCAVRVLYRQVFRYDYWGQGTQVTVSS", "high polyreactivity"),
]
